Please provide measured fold change (FC) for the entries that follow.
# System: Staphylococcus aureus
# protocol-details: Potentiation of norfloxacin-induced antibacterial activity against clinical isolates of methicillin-resistant Staphylococcus aureus ST10342 assessed as reduction in norfloxacin MIC by checkerboard assay relative to control
# Format: functional
One number for each entry.

Okay, here is my list. What is fold change (FC) for each of these?
1. COc1cc(OC)c([C@@H]2COc3c(cc(/C=C/C(=O)c4ccc(OC)c(OC)c4)c4c3C=CC(C)(C)O4)C2)cc1/C=C/C(=O)c1ccc(OC)c(OC)c1
2. COc1ccc([C@@H]2COc3c(cc(/C=C/C(=O)c4ccc(OC)c(OC)c4)c4c3C=CC(C)(C)O4)C2)c(OC)c1
3. COc1ccc([C@@H]2COc3c(cc(/C=C/C(=O)c4ccco4)c4c3C=CC(C)(C)O4)C2)c(OC)c1
4. COc1cc(OC)c([C@@H]2COc3c(cc(/C=C/C(=O)c4ccco4)c4c3C=CC(C)(C)O4)C2)cc1/C=C/C(=O)c1ccco1
5. CC1(C)C=Cc2c(ccc3c2OC[C@@H](c2ccc(O)cc2O)C3)O1

Out:
[4, 8, 8, 8, 2]

---

# System: Staphylococcus aureus
# protocol-details: Antibacterial activity against clinical isolates of methicillin-resistant Staphylococcus aureus ST10342 by checkerboard assay in presence of norfloxacin
# Type: functional
experimental-readout: fractional inhibitory concentration index (FICI)

Worked set:
CC1(C)C=Cc2c(ccc3c2OC[C@@H](c2ccc(O)cc2O)C3)O1 ... 1
COc1cc(OC)c([C@@H]2COc3c(cc(/C=C/C(=O)c4ccc(OC)c(OC)c4)c4c3C=CC(C)(C)O4)C2)cc1/C=C/C(=O)c1ccc(OC)c(OC)c1 ... 0.75
COc1cc(OC)c([C@@H]2COc3c(cc(/C=C/C(=O)c4ccco4)c4c3C=CC(C)(C)O4)C2)cc1/C=C/C(=O)c1ccco1 ... 0.375
COc1ccc([C@@H]2COc3c(cc(/C=C/C(=O)c4ccc(OC)c(OC)c4)c4c3C=CC(C)(C)O4)C2)c(OC)c1 ... 0.375

Value of fractional inhibitory concentration index (FICI) reported for the molecule COc1ccc([C@@H]2COc3c(cc(/C=C/C(=O)c4ccco4)c4c3C=CC(C)(C)O4)C2)c(OC)c1 is 0.5

---

# Tested on: Staphylococcus aureus
# protocol-details: Potentiation of norfloxacin-induced antibacterial activity against clinical isolates of methicillin-resistant Staphylococcus aureus ST10342 assessed as norfloxacin MIC by checkerboard assay
# Format: functional
experimental-readout: MIC (µg/mL)
Give bare numbers, in µg/mL.

COc1cc(OC)c([C@@H]2COc3c(cc(/C=C/C(=O)c4ccco4)c4c3C=CC(C)(C)O4)C2)cc1/C=C/C(=O)c1ccco1 ... 31.2

Hey, quick one: what's MIC for each of these?
1. COc1cc(OC)c([C@@H]2COc3c(cc(/C=C/C(=O)c4ccc(OC)c(OC)c4)c4c3C=CC(C)(C)O4)C2)cc1/C=C/C(=O)c1ccc(OC)c(OC)c1
2. CC1(C)C=Cc2c(ccc3c2OC[C@@H](c2ccc(O)cc2O)C3)O1 [GLABRIDIN]

Out:
62.5
125

For each entry beneath this line, provide reported MIC.
1. COc1ccc([C@@H]2COc3c(cc(/C=C/C(=O)c4ccco4)c4c3C=CC(C)(C)O4)C2)c(OC)c1
2. COc1ccc([C@@H]2COc3c(cc(/C=C/C(=O)c4ccc(OC)c(OC)c4)c4c3C=CC(C)(C)O4)C2)c(OC)c1

Out:
31.2
31.2
